- Tested on: Klebsiella pneumoniae
- protocol.conditions: Concentration 20 uM; ASSAY_TEST Inhibition of Bacterial Growth; detection method Absorption (OD600); MEDIA CAMHB; plate type 384well; NBS; CORNING #3640; time 18 hr
- Description: Antibacterial activity against Klebsiella pneumoniae MDR ATCC 70063 (CO-ADD:GN_003); MIC in CAMBH media using NBS plates, by OD(600)
Measured potencies and affinities stand elsewhere.

[
  {
    "compound": "CC(C)NCC(O)COc1ccc(COCCOC(C)C)cc1.CC(C)NCC(O)COc1ccc(COCCOC(C)C)cc1.O=C(O)/C=C/C(=O)O (stereo not drawn) [BISOPROLOL FUMARATE]",
    "value.units": "%",
    "Inhibition": 12.19
  },
  {
    "compound": "CC(=O)OCC(=O)[C@@]1(O)CC[C@H]2[C@@H]3CCC4=CC(=O)CC[C@]4(C)[C@H]3C(=O)C[C@@]21C [CORTISONE ACETATE]",
    "value.units": "%",
    "Inhibition": 12.5
  },
  {
    "compound": "CC(C)[N+]1(C)C2CCC1CC(OC(=O)C(CO)c1ccccc1)C2.[Br-] (stereo not drawn)",
    "value.units": "%",
    "Inhibition": -0.09
  },
  {
    "compound": "Cc1cn([C@H]2C=C[C@@H](CO)O2)c(=O)[nH]c1=O",
    "value.units": "%",
    "Inhibition": 14.08
  },
  {
    "compound": "CCN(CC)CC(=O)Nc1c(C)cccc1C",
    "value.units": "%",
    "Inhibition": 14.92
  },
  {
    "compound": "CCc1cccc2c3c([nH]c12)C(CC)(CC(=O)O)OCC3 (stereo not drawn)",
    "value.units": "%",
    "Inhibition": 6.96
  },
  {
    "compound": "CCC(=O)O[C@]1(C(=O)CCl)[C@@H](C)C[C@H]2[C@@H]3CCC4=CC(=O)C=C[C@]4(C)[C@@]3(F)[C@@H](O)C[C@@]21C [CLOBETASOL PROPIONATE]",
    "value.units": "%",
    "Inhibition": -2.85
  },
  {
    "compound": "CC(C)Cc1ccc(C(C)C(=O)O)cc1 (stereo not drawn)",
    "value.units": "%",
    "Inhibition": -1.68
  }
]

---

Reported Inhibition values follow for various compounds
- Tested on: Klebsiella pneumoniae
- protocol.conditions: Concentration 20 uM; ASSAY_TEST Inhibition of Bacterial Growth; detection method Absorption (OD600); MEDIA CAMHB; plate type 384well; NBS; CORNING #3640; time 18 hr
Entries with a potency or affinity are not part of this list.
quantity.measured: Inhibition (%)

[
  {
    "compound": "O=C(O)CCNC(=O)c1ccc(N=Nc2ccc(O)c(C(=O)O)c2)cc1",
    "quantity.measured": "Inhibition",
    "reported.value": 9.82
  },
  {
    "compound": "CC(=O)OCC(CCn1cnc2cnc(N)nc21)COC(C)=O [FAMCICLOVIR]",
    "quantity.measured": "Inhibition",
    "reported.value": 11.51
  },
  {
    "compound": "CC#C[C@]1(O)CC[C@H]2[C@@H]3CCC4=CC(=O)CCC4=C3[C@@H](c3ccc(N(C)C)cc3)C[C@@]21C [MIFEPRISTONE]",
    "quantity.measured": "Inhibition",
    "reported.value": 3.7
  },
  {
    "compound": "CC(C)(C)C(O)/C=C/c1ccc2c(c1)OCO2 (stereo unspecified) [STIRIPENTOL]",
    "quantity.measured": "Inhibition",
    "reported.value": 6.61
  },
  {
    "compound": "CN(C)[C@@H]1C(=O)C(C(=O)NCN2CCCC2)=C(O)[C@@]2(O)C(O)=C3C(=O)c4c(O)cccc4[C@@](C)(O)C3CC12 (stereo partly specified)",
    "quantity.measured": "Inhibition",
    "reported.value": 7.32
  },
  {
    "compound": "CC(=CCC1=C(C)C(=O)c2ccccc2C1=O)CCCC(C)CCCC(C)CCCC(C)C (stereo unspecified)",
    "quantity.measured": "Inhibition",
    "reported.value": 6.75
  },
  {
    "compound": "Nc1nc2c(ncn2COC(CO)CO)c(=O)[nH]1 [GANCICLOVIR]",
    "quantity.measured": "Inhibition",
    "reported.value": 11.05
  },
  {
    "compound": "COc1ccnc(C[S+]([O-])c2nc3cc(OC(F)F)ccc3[n-]2)c1OC.O.[Na+] (stereo unspecified) [PANTOPRAZOLE SODIUM]",
    "quantity.measured": "Inhibition",
    "reported.value": 5.85
  },
  {
    "compound": "COc1nc(C)nc(Cl)c1NC1=NCCN1.Cl [MOXONIDINE HYDROCHLORIDE]",
    "quantity.measured": "Inhibition",
    "reported.value": 3.54
  },
  {
    "compound": "CNCCC=C1c2ccccc2CCc2ccccc21.Cl [NORTRIPTYLINE HYDROCHLORIDE]",
    "quantity.measured": "Inhibition",
    "reported.value": 11.74
  },
  {
    "compound": "O=c1c(O[C@@H]2O[C@H](CO)[C@@H](O)[C@H](O)[C@H]2O)c(-c2ccc(O)c(O)c2)oc2cc(O)cc(O)c12 [ISOQUERCETIN]",
    "quantity.measured": "Inhibition",
    "reported.value": 10.08
  },
  {
    "compound": "CC(C)(C#N)c1cc(Cn2cncn2)cc(C(C)(C)C#N)c1 [ANASTROZOLE]",
    "quantity.measured": "Inhibition",
    "reported.value": -11.78
  },
  {
    "compound": "CC(=O)/N=c1/sc(S(N)(=O)=O)nn1C [METHAZOLAMIDE]",
    "quantity.measured": "Inhibition",
    "reported.value": 3.3
  },
  {
    "compound": "C[C@@H]1C[C@H]2[C@@H]3C[C@H](F)C4=CC(=O)C(Cl)=C[C@]4(C)[C@@]3(F)[C@@H](O)C[C@]2(C)[C@@]1(O)C(=O)CO [HALOMETASONE]",
    "quantity.measured": "Inhibition",
    "reported.value": 3.82
  },
  {
    "compound": "C[C@H]1O[C@@H](O[C@H]2[C@@H](O)C[C@H](O[C@H]3[C@@H](O)C[C@H](O[C@H]4CC[C@@]5(C)[C@H](CC[C@@H]6[C@@H]5C[C@@H](O)[C@]5(C)C(C7=CC(=O)OC7)CC[C@]65O)C4)O[C@@H]3C)O[C@@H]2C)C[C@H](O)[C@@H]1O (stereo partly specified)",
    "quantity.measured": "Inhibition",
    "reported.value": 10.13
  },
  {
    "compound": "COC(=O)C1=C(C)NC(C)=C(C(=O)OC(C)C)C1c1cccc2nonc12 (stereo unspecified) [ISRADIPINE]",
    "quantity.measured": "Inhibition",
    "reported.value": 7.21
  }
]

---

- Test system: Cryptococcus neoformans
- protocol.conditions: Concentration 20 uM; ASSAY_TEST Inhibition of Fungal Growth; detection method Resazurin; Absorption (OD600-OD570); plate type 384well; NBS; CORNING #3640
- Description: Antifungal activity against Cryptococcus neoformans H99 ATCC 208821 (CO-ADD:FG_002); MIC in YNB media using NBS plates, by Resazurin OD(600-570)
Entries with a potency or affinity are not part of this list.
quantity.measured: Inhibition (%)

[
  {
    "compound": "CCOC(=O)O[C@]1(C(=O)OCCl)CC[C@H]2[C@@H]3CCC4=CC(=O)C=C[C@]4(C)[C@H]3[C@@H](O)C[C@@]21C [LOTEPREDNOL ETABONATE]",
    "reported.value": 0.62
  },
  {
    "compound": "CC1=C(C(=O)O)N2C(=O)[C@@H](NC(=O)[C@H](N)c3ccccc3)[C@H]2SC1.O [CEPHALEXIN]",
    "reported.value": 4.2
  },
  {
    "compound": "CC(=O)O.NCc1ccc(S(N)(=O)=O)cc1 [MAFENIDE ACETATE]",
    "reported.value": -7.57
  },
  {
    "compound": "Cc1ccc(O)c([C@H](CCN(C(C)C)C(C)C)c2ccccc2)c1.O=C(O)C(O)C(O)C(=O)O [TOLTERODINE TARTRATE]",
    "reported.value": -7.64
  },
  {
    "compound": "CC(=O)OCC(=O)[C@@]12OC(C)(C)O[C@@H]1C[C@H]1[C@@H]3C[C@H](F)C4=CC(=O)C=C[C@]4(C)[C@@]3(F)[C@@H](O)C[C@@]12C [FLUOCINONIDE]",
    "reported.value": -0.92
  },
  {
    "compound": "CN1CC(=O)N2[C@H](c3ccc4c(c3)OCO4)c3[nH]c4ccccc4c3C[C@@H]2C1=O",
    "reported.value": -3.58
  },
  {
    "compound": "CS(=O)(=O)c1ccc(-c2cc(Br)sc2-c2ccc(F)cc2)cc1 [DUP-697]",
    "reported.value": -8.07
  }
]
